system: Mycobacterium tuberculosis; assay: Cornell - Phenotypic assay to identify agents that inhibit growth of Mycobacterium tuberculosis; format: functional; design: scale not given: direction of the effect not stated beside the values; details: 10 mM as filed; unlikely as a test dose
About 900 (1.7%) of roughly 53,000 compounds showed an effect of 50% or more. The entries come from a sample that favours strong results as a whole.
Reported Percent Effect values are given for each entry in this list.
Property Measured: Percent Effect (%)

{"Compound": "N#Cc1nc(COc2ccc3c(c2)OCO3)oc1NC1CC1", "Target Of Assay": "Mycobacterium tuberculosis", "Measurement Units": "%", "Endpoint Result": 0.1825}
{"Compound": "Cc1ccc(S(=O)(=O)NC(=O)c2c(C)noc2C(C)C)cc1C", "Target Of Assay": "Mycobacterium tuberculosis", "Measurement Units": "%", "Endpoint Result": 26.09}
{"Compound": "CC(=O)c1cccc(NC(=O)Cn2nc(-c3cccs3)oc2=O)c1", "Target Of Assay": "Mycobacterium tuberculosis", "Measurement Units": "%", "Endpoint Result": -19.71}
{"Compound": "NC(c1ccccc1)c1ccc(OC(F)F)cc1 (stereo not given)", "Target Of Assay": "Mycobacterium tuberculosis", "Measurement Units": "%", "Endpoint Result": 11.06}
{"Compound": "CC(=O)N(Cc1noc(C2CC2)n1)C1CCN(CC2CCOCC2)C1 (stereo not given)", "Target Of Assay": "Mycobacterium tuberculosis", "Measurement Units": "%", "Endpoint Result": -29.12}
{"Compound": "CN[C@@H]1CCC[C@@H](Oc2ccccc2Oc2ccc(C)cc2)[C@@H]1O", "Target Of Assay": "Mycobacterium tuberculosis", "Measurement Units": "%", "Endpoint Result": 74.11}
{"Compound": "CNc1oc(COc2ccc3c(c2)OCO3)nc1C#N", "Target Of Assay": "Mycobacterium tuberculosis", "Measurement Units": "%", "Endpoint Result": -5.351}
{"Compound": "N#Cc1nc(COc2ccc3c(c2)OCO3)oc1NC1CCCCC1", "Target Of Assay": "Mycobacterium tuberculosis", "Measurement Units": "%", "Endpoint Result": 58.43}
{"Compound": "Cc1nc(N2CCOCC2)nc(C)c1NC(=O)Cc1ccc(Cl)cc1", "Target Of Assay": "Mycobacterium tuberculosis", "Measurement Units": "%", "Endpoint Result": -26.81}
{"Compound": "O=C(O)C(F)(F)F.O=C(O)C(F)(F)F.O=C(c1ccc(F)cc1)N1CCN2C[C@H](OCc3cccnc3)C[C@H]2C1", "Target Of Assay": "Mycobacterium tuberculosis", "Measurement Units": "%", "Endpoint Result": 19.5}
{"Compound": "Cc1ccc(CN2CCN(c3ccc(F)cn3)CC2=O)cc1C", "Target Of Assay": "Mycobacterium tuberculosis", "Measurement Units": "%", "Endpoint Result": 39.83}
{"Compound": "CN(C)CC(=O)N1CCN(C(=O)c2cccc3[nH]ncc23)CC1", "Target Of Assay": "Mycobacterium tuberculosis", "Measurement Units": "%", "Endpoint Result": 11.64}
{"Compound": "COCc1ccc(CNc2cnn(C(C)(C)C)c(=O)c2Cl)cc1", "Target Of Assay": "Mycobacterium tuberculosis", "Measurement Units": "%", "Endpoint Result": 55.73}
{"Compound": "CCS(=O)(=O)Nc1cnn(Cc2cccc(C)c2)c1", "Target Of Assay": "Mycobacterium tuberculosis", "Measurement Units": "%", "Endpoint Result": 56.26}
{"Compound": "CC(c1cccnc1)N(C)C(=O)NCCOc1ccc(C#N)cc1 (stereo not given)", "Target Of Assay": "Mycobacterium tuberculosis", "Measurement Units": "%", "Endpoint Result": 12.58}
{"Compound": "Cc1nnc(N2CC[C@H]3C[C@@H](C(=O)NC4CCCC4)O[C@H]3C2)s1.O=C(O)C(F)(F)F", "Target Of Assay": "Mycobacterium tuberculosis", "Measurement Units": "%", "Endpoint Result": -17.08}
{"Compound": "Cc1noc(-c2ccc(-n3ncc(C(=O)O)c3C)nc2)n1", "Target Of Assay": "Mycobacterium tuberculosis", "Measurement Units": "%", "Endpoint Result": 11.73}
{"Compound": "CN(C)C(=O)CNC(=O)c1ccn(-c2ccc3ccccn23)n1", "Target Of Assay": "Mycobacterium tuberculosis", "Measurement Units": "%", "Endpoint Result": 8.811}
{"Compound": "CCc1ccc(C(COC)NC(=O)c2ccc(C(N)=O)cc2)o1 (stereo not given)", "Target Of Assay": "Mycobacterium tuberculosis", "Measurement Units": "%", "Endpoint Result": 17.07}
{"Compound": "COCc1cccc(CNc2cnn(C(C)(C)C)c(=O)c2Cl)c1", "Target Of Assay": "Mycobacterium tuberculosis", "Measurement Units": "%", "Endpoint Result": 17.4}
{"Compound": "O=C(NCCS(=O)(=O)N1CCN(c2ncccn2)CC1)C1CC1", "Target Of Assay": "Mycobacterium tuberculosis", "Measurement Units": "%", "Endpoint Result": -28.73}
{"Compound": "COCCNC(=O)c1cc2c(c3ccccc3n2C)n1C(=O)N(C)C", "Target Of Assay": "Mycobacterium tuberculosis", "Measurement Units": "%", "Endpoint Result": 18.89}
{"Compound": "OC(CN1CCN(CC2CCCCC2)CC1)c1ccccc1 (stereo not given)", "Target Of Assay": "Mycobacterium tuberculosis", "Measurement Units": "%", "Endpoint Result": 2.655}
{"Compound": "Cc1ccc(Oc2cc(F)ccc2O[C@@H]2CCC[C@@H](N)[C@H]2O)cc1", "Target Of Assay": "Mycobacterium tuberculosis", "Measurement Units": "%", "Endpoint Result": 30.66}
{"Compound": "O=C(Nc1ccnc2ccnn12)c1ccc(N2CCC(O)CC2)cc1", "Target Of Assay": "Mycobacterium tuberculosis", "Measurement Units": "%", "Endpoint Result": 85.62}
{"Compound": "c1nc(CCNc2nc(C3CC3)nc3c2CCNCC3)c[nH]1", "Target Of Assay": "Mycobacterium tuberculosis", "Measurement Units": "%", "Endpoint Result": 8.345}
{"Compound": "NC(=O)C(NC(=O)COC1CCCCC1)c1ccccc1 (stereo not given)", "Target Of Assay": "Mycobacterium tuberculosis", "Measurement Units": "%", "Endpoint Result": 22.67}
{"Compound": "CC(C)(C)Oc1ccc(NCC(=O)NCc2ccco2)cc1", "Target Of Assay": "Mycobacterium tuberculosis", "Measurement Units": "%", "Endpoint Result": 108}
{"Compound": "Cc1nc(-c2ccncc2)ncc1C(C)NC(=O)CN1CCOC1=O (stereo not given)", "Target Of Assay": "Mycobacterium tuberculosis", "Measurement Units": "%", "Endpoint Result": -51.46}
{"Compound": "Cc1cc(C[C@@H]2CCC[C@H]2NCc2cc(C)c(O)c(C)c2)on1.O=C(O)CC(O)(CC(=O)O)C(=O)O", "Target Of Assay": "Mycobacterium tuberculosis", "Measurement Units": "%", "Endpoint Result": 77.55}

The reported measurements were obtained from ChEMBL document CHEMBL3988442.
